# assay.explanation: Acute toxicity in the mouse, intraperitoneal (approximate LD50)
# Format: in vivo
# experimental.parameters: in vivo, ip, 6 dosage levels, read-out: Mouse LD50 i.p.
molecules and their reported LD50
# unit: mg/kg | format: bare number

Solved entries:
- molecule: "CCOC(=O)NNc1ccc(N(CC)CC(C)O)nn1 (stereo not shown) [Example 6]"
  LD50 (mg/kg): 700
- molecule: "CCOC(=O)NNc1ccc(N(C)CC(C)O)nn1 (stereo not shown) [Example 3]"
  LD50 (mg/kg): 700
- molecule: "C=CCN(CC=C)c1ccc(NNC(=O)OCC)nn1 [Example 5]"
  LD50 (mg/kg): 300

Noted for NNc1nncc2ccccc12 [Hydralazine, reference compound] : its LD50 reads 100
